B1: tRNA (parent)
chain: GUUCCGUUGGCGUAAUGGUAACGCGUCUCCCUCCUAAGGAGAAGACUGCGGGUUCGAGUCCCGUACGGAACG

Variants of: B1
Measurement Notes: yeast fitness, log relative to wild type (ln ratio); higher = fitter; tRNA-Arg(CCU), competitive growth, 37 C, 1 M NaCl

{"Variant Name": "G1A C27U C66A A69G A70G C71U", "yeast fitness (ln)": -0.325}
{"Variant Name": "C27U A43C C46U A70G", "yeast fitness (ln)": -0.0288}
{"Variant Name": "U2C G6U C27U A43C C46U C66U A70U", "yeast fitness (ln)": -0.173}
{"Variant Name": "G1A U2G G6U C27U A43C A70G C71U", "yeast fitness (ln)": -0.588}
{"Variant Name": "G1A U2G G6A C27U C46U", "yeast fitness (ln)": -0.154}
{"Variant Name": "G1A G6A C27U C46U C66U C71U", "yeast fitness (ln)": -0.0279}
{"Variant Name": "U2G A43C C66A A69G A70U C71U", "yeast fitness (ln)": -0.28}
{"Variant Name": "G6A C27U C66U C71U", "yeast fitness (ln)": -0.171}
{"Variant Name": "G1A U2G G6U C27U C46U C66A A70G C71U", "yeast fitness (ln)": -0.239}
{"Variant Name": "G1A U2G G6A C27U C46U A69G A70G", "yeast fitness (ln)": -0.226}
{"Variant Name": "A43C C66U A70G", "yeast fitness (ln)": -0.0981}
{"Variant Name": "G6U C27U C46U A69G A70G C71U", "yeast fitness (ln)": -0.342}
{"Variant Name": "A69G A70U C71U", "yeast fitness (ln)": -0.162}
{"Variant Name": "G1A U2C G6A A43C", "yeast fitness (ln)": -0.0264}
{"Variant Name": "G1A C27U C66U A69G A70U", "yeast fitness (ln)": -0.295}
{"Variant Name": "G6A C27U C46U C66U A69G A70G C71U", "yeast fitness (ln)": -0.215}
{"Variant Name": "G1A U2G G6U A43C C46U", "yeast fitness (ln)": -0.117}
{"Variant Name": "G1A C27U C46U C66A A69G A70U C71U", "yeast fitness (ln)": -0.411}
{"Variant Name": "U2G G6A C46U A70U C71U", "yeast fitness (ln)": -0.449}
{"Variant Name": "G1A G6U C27U C66U A69G C71U", "yeast fitness (ln)": -0.295}
{"Variant Name": "U2G G6U C46U A69G A70U C71U", "yeast fitness (ln)": -0.311}
{"Variant Name": "C27U C66A", "yeast fitness (ln)": -0.0595}
{"Variant Name": "G1A G6U C66A A69G A70U C71U", "yeast fitness (ln)": -0.432}
{"Variant Name": "U2G G6U C27U C46U C66A C71U", "yeast fitness (ln)": -0.147}
{"Variant Name": "G1A U2G G6A A43C C46U C66A A70G C71U", "yeast fitness (ln)": -0.169}
{"Variant Name": "G1A G6A C27U A43C C66U A69G A70U C71U", "yeast fitness (ln)": -0.628}
{"Variant Name": "U2G G6U C27U C66A C71U", "yeast fitness (ln)": -0.168}
{"Variant Name": "U2C C27U C46U C66A A70U", "yeast fitness (ln)": -0.0366}
{"Variant Name": "G1A G6A C27U A43C C46U A69G A70G", "yeast fitness (ln)": -0.265}
{"Variant Name": "U2C G6A A43C C66U A70U", "yeast fitness (ln)": -0.06}
{"Variant Name": "G1A U2G G6A C46U", "yeast fitness (ln)": -0.0789}
{"Variant Name": "G1A C27U C46U C66A A69G C71U", "yeast fitness (ln)": -0.168}
{"Variant Name": "G1A U2G G6A C27U A43C C46U C66A A70G C71U", "yeast fitness (ln)": -0.478}
{"Variant Name": "U2G G6A C27U A43C C46U C66U A70G", "yeast fitness (ln)": -0.143}
{"Variant Name": "U2C A43C C66U A70G C71U", "yeast fitness (ln)": -0.346}
{"Variant Name": "U2G C27U A43C C46U C66A A69G C71U", "yeast fitness (ln)": -0.34}
{"Variant Name": "G6U C27U A43C C46U C66A A69G A70G", "yeast fitness (ln)": -0.471}
{"Variant Name": "C27U C46U C66A C71U", "yeast fitness (ln)": -0.0951}
{"Variant Name": "G6U C27U A43C C66A A69G A70G", "yeast fitness (ln)": -0.453}
{"Variant Name": "G1A U2G G6U A43C C66U A70G C71U", "yeast fitness (ln)": -0.419}
{"Variant Name": "U2G G6U C27U C66A A70G C71U", "yeast fitness (ln)": -0.239}
{"Variant Name": "G1A U2G G6U C27U A43C A70U", "yeast fitness (ln)": -0.338}
{"Variant Name": "G1A U2G A43C C46U A70U C71U", "yeast fitness (ln)": -0.00171}
